Hello, the source for this data is PubChem BioAssay AID1159580, in case you need it.

test: chemical genetic growth profiling, strain panel (AID 1159580);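 further: tested at 20 µM; growth read once vehicle control cultures reached saturation at 30 °C; 1 = growth at the plate median or of vehicle wells; lower values mean less growth of the strain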; conditions: S. cerevisiae deletion strains, growth OD, locus YOR184W, strain ser1, active compounds read low
In all, about 5,500 compounds went through this assay and about 2,000 (36%) were called active. Another 18% or so got no clear call; they are omitted. Some of the results follow.
Provide the reported normalized growth of each item.
Give bare numbers.

For orientation, consider the following solved cases.
CC(C)Nc1nc(Cl)nc(NC(C)C)n1 :: 1.02
NCCCCN :: 1
CC(=O)O[C@@H]1CC2C(C)(CC[C@H](O)C2(C)C)C2CC[C@]3(C)C(=CC(=O)O[C@H]3c3ccoc3)C21C (some centres not stated) :: 0.992
NCCCN :: 1.01

# per-item lookup of normalized growth; items listed below
1. CCOC(=O)C1=C(O)C(=O)N(Cc2ccccc2)C1
2. CCc1ccc2c(O)c3c(cc2c1C(=O)OC)C(=O)c1c(O)ccc(O)c1C3=O

[1.04, 0.965]

The molecule listed as NCC(O)CC(=O)O (configuration not stated) shows normalized growth equal to 1

----------
Record form. Attribute: normalized growth. Fill in for each entry.
experiment: chemical genetic growth profiling, strain panel (AID 1159580);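 further: tested at 20 µM; growth read once vehicle control cultures reached saturation at 30 °C; 1 = growth at the plate median or of vehicle wells; lower values mean less growth of the strain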; details: S. cerevisiae deletion strains, growth OD, locus YHR030C, strain SLT2, active compounds read low
Screen size: about 5,500 compounds; about 2,000 (36%) were called active. About 18% were inconclusive and are not listed. The list shows a part of the results.
Numbers only.

Examples from the recorded data:
CN1/C(=C/C=C/c2ccc3ccccc3[n+]2C)C=Cc2ccccc21 :: 0.177
CC(=O)C1=C(C)Nc2ccccc2S1 :: 0.922
O=C(NC(=S)NNc1ncc(C(F)(F)F)cc1Cl)c1cccs1 :: 0.287
NCCCC(O)(P(=O)(O)O)P(=O)(O)O :: 0.979

Now for a further molecule.
Per the record, N#CCCN1C(=O)C2(OCCO2)c2ccccc21 has normalized growth of 1

----------
assay: chemical genetic growth profiling, strain panel (AID 1159580);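 further: tested at 20 µM; growth read once vehicle control cultures reached saturation at 30 °C; 1 = growth at the plate median or of vehicle wells; lower values mean less growth of the strain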; settings: S. cerevisiae deletion strains, growth OD, locus YNL298W, strain CLA4, active compounds read low
The whole screen tested about 5,500 compounds, of which about 2,000 (36%) were called active. About 18% were inconclusive and are not listed. This is one part of the list.
For each record, check the reported normalized growth: if it is below 1 write Yes, else write No.

# example entries with known answers
O=c1c(O)cccc2c(C3Oc4cc(O)cc(O)c4CC3O)cc(O)c(O)c12 (stereo not drawn) :: Yes
Cc1ccc(C(C)C)c(O)c1C(=O)O :: Yes
O=C(/C=C(\O)c1ccccc1)c1ccccc1O :: Yes
Cc1cc(N)c2ccccc2[n+]1CCCCCCCCCC[n+]1c(C)cc(N)c2ccccc21 :: Yes
C[C@]12CCC3C(CC[C@]4(O)C[C@@H](O)CC[C@]34C=O)[C@@]1(O)CCC2C1=CC(=O)OC1 (stereo partly drawn) :: Yes

I wonder whether CC(=O)OC1CC[C@@]2(C)C(CCC3C2CC[C@]2(C)C(C4=CC(=O)OC4)C(OC(C)=O)CC32O)C1 (stereo partly drawn) has normalized growth below 1. Can you tell?
No

----------
assay: chemical genetic growth profiling, strain panel (AID 1159580);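 further: tested at 20 µM; growth read once vehicle control cultures reached saturation at 30 °C; 1 = growth at the plate median or of vehicle wells; lower values mean less growth of the strain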; settings: S. cerevisiae deletion strains, growth OD, locus YLL026W, active compounds read low
About 2,000 (36%) of roughly 5,500 compounds were called active. Inconclusive results (about 18%) are left out. The list shows a part of the results.
Could you please report measured normalized growth for the items listed next?
Give bare numbers.

Past entries and their recorded results:
CC(=O)OC1CC[C@@]2(C)C(CCC3C2CC[C@]2(C)C(C4=CC(=O)OC4)C(OC(C)=O)CC32O)C1 (stereo partly drawn) :: 0.983
CC1=CC(=O)C(C(C)C)=CC1=O :: 0.838
COc1ccccc1N1CCN(CCCNc2cc(=O)n(C)c(=O)n2C)CC1 :: 1.01
Nc1ccc(S(=O)(=O)Nc2ncccn2)cc1 :: 0.999
CN(C)CC[C@H](c1ccc(Cl)cc1)c1ccccn1 :: 0.997
COC(=O)CC1C(C)(C)C(OC(C)=O)[C@@H]2[C@@H](OC(C)=O)[C@]34O[C@@]2(O)[C@]1(C)C3CC[C@]1(C)C4=CC(=O)O[C@H]1c1ccoc1 (stereo partly drawn) :: 0.999
C[C@H]1O[C@H](O[C@H]2[C@H](O)[C@@H](O)[C@@H](O[C@H]3[C@H](O)[C@@H](O)C(O)O[C@@H]3CO)O[C@@H]2CO)[C@H](O)[C@@H](O)[C@@H]1N[C@H]1C=C(CO)[C@@H](O)[C@H](O)[C@H]1O (stereo partly drawn) :: 1.01

Next compound, please.
Per the records, this compound ( COc1ccc(-c2cc(=O)c3c(O)c(OC)c(OC)c(OC)c3o2)cc1OC ) has normalized growth equal to 0.998
